Reported values of (ii) % OCR after cccp for individual entries
tested on: Mycobacterium tuberculosis (strain H37Ra), cyt bd; settings: Mtb H37Ra; test compound 10 μM after Compound X 0.9 μM, then CCCP 1 μM
RECORDED_METRIC: (ii) % OCR after cccp

- COMPOUND: "Cc1c(-c2cn3cc(Oc4ccc(OC(F)(F)F)cc4)ccc3n2)[nH]c2ccccc2c1=O"
  EXPERIMENTAL_VALUE: "138.6%"
- COMPOUND: "Cc1c(-c2nc3cc(C(F)(F)F)c(Br)cn3n2)[nH]c2ccccc2c1=O"
  EXPERIMENTAL_VALUE: "140.4%"
- COMPOUND: "Cc1c(-c2nc3ccc(Br)cn3n2)[nH]c2ccccc2c1=O"
  EXPERIMENTAL_VALUE: "148.3%"
- COMPOUND: "Cc1c(-c2nc3ccc(F)cn3n2)[nH]c2ccccc2c1=O"
  EXPERIMENTAL_VALUE: "123.6%"
- COMPOUND: "Cc1c(-c2nc3ccc(-c4cc(C(F)(F)F)nn4C)cn3n2)[nH]c2ccccc2c1=O"
  EXPERIMENTAL_VALUE: "94.75%"
- COMPOUND: "Cc1c(-c2cc3ccc(-c4ccc(OC(F)(F)F)cc4)cn3c2)[nH]c2ccccc2c1=O"
  EXPERIMENTAL_VALUE: "109.8%"
- COMPOUND: "Cc1c(-c2nc3cc(-c4ccc(OC(F)(F)F)cc4)ccn3n2)[nH]c2ccccc2c1=O"
  EXPERIMENTAL_VALUE: "38.3%"
- COMPOUND: "C/C=C(\\C=C/C1=NC(c2[nH]c3ccccc3c(=O)c2C)=NC(CC)C1)c1ccc(OC)c(OC)c1 (stereo not drawn)"
  EXPERIMENTAL_VALUE: "89,24%"
- COMPOUND: "Cc1c(-c2nc3ccc(Br)cn3n2)[nH]c2c(F)cc(F)cc2c1=O"
  EXPERIMENTAL_VALUE: "149.2%"
- COMPOUND: "Cc1cc(F)cc(-c2ccc3nc(-c4[nH]c5ccccc5c(=O)c4C)nn3c2)c1"
  EXPERIMENTAL_VALUE: "39,44%"
- COMPOUND: "Cc1nnc(-c2ccc3nc(-c4[nH]c5ccccc5c(=O)c4C)nn3c2)s1"
  EXPERIMENTAL_VALUE: "186.45%"
- COMPOUND: "Cc1c(-c2nc3ccc(-c4cn(C)nn4)cn3n2)[nH]c2ccccc2c1=O"
  EXPERIMENTAL_VALUE: "175.05%"
- COMPOUND: "O=c1c(Br)c(-c2nc3ccc(-c4ccc(OC(F)(F)F)cc4)cn3n2)[nH]c2ccccc12"
  EXPERIMENTAL_VALUE: "137.15%"
- COMPOUND: "Cc1c(-c2nc3ccc(-c4ccc(OC(F)(F)F)c(F)c4)cn3n2)[nH]c2ccccc2c1=O"
  EXPERIMENTAL_VALUE: "35.1%"
- COMPOUND: "Cc1c(-c2nc3ccc(-c4cn(CC(F)(F)F)nn4)cn3n2)[nH]c2ccccc2c1=O"
  EXPERIMENTAL_VALUE: "153.33%"
- COMPOUND: "Cc1c(-c2nc3ccc(CN4CCC(C(F)(F)F)CC4)cn3n2)[nH]c2ccccc2c1=O"
  EXPERIMENTAL_VALUE: "59.43%"
- COMPOUND: "Cc1c(-c2nc3ccc(N4CCC(OC(F)(F)F)CC4)cn3n2)[nH]c2ccccc2c1=O"
  EXPERIMENTAL_VALUE: "83.9%"
- COMPOUND: "Cc1c(-c2nc3ccc(-c4ccc(OC(F)(F)F)cc4)cn3n2)[nH]c2ccccc2c1=O"
  EXPERIMENTAL_VALUE: "58.4%"
- COMPOUND: "O=c1cc(-c2nc3ccc(-c4ccc(OC(F)(F)F)cc4)cn3n2)[nH]c2ccccc12"
  EXPERIMENTAL_VALUE: "158.97%"
- COMPOUND: "Cc1c(-c2nc3cc(-c4cccc(OC(F)(F)F)c4)ccn3n2)[nH]c2ccccc2c1=O"
  EXPERIMENTAL_VALUE: "117.7%"
- COMPOUND: "Cc1c(-c2cn3ccc(-c4ccc(OC(F)(F)F)cc4)cc3n2)[nH]c2ccccc2c1=O"
  EXPERIMENTAL_VALUE: "137.9%"
- COMPOUND: "Cc1c(-c2nc3ccc(-c4nc(C(F)(F)F)nn4C)cn3n2)[nH]c2ccccc2c1=O"
  EXPERIMENTAL_VALUE: "143.58%"
- COMPOUND: "Cc1ccc(-c2ccc3nc(-c4[nH]c5ccccc5c(=O)c4C)nn3c2)o1"
  EXPERIMENTAL_VALUE: "56,23%"
- COMPOUND: "Cc1c(-c2cn3cc(-c4cccc(OC(F)(F)F)c4)ccc3n2)[nH]c2ccccc2c1=O"
  EXPERIMENTAL_VALUE: "110.11%"
- COMPOUND: "Cc1csc(-c2ccc3nc(-c4[nH]c5ccccc5c(=O)c4C)nn3c2)n1"
  EXPERIMENTAL_VALUE: "167.55%"
- COMPOUND: "Cc1c(-c2nc3ccc(N4CCN(CC(F)(F)F)CC4)cn3n2)[nH]c2ccccc2c1=O"
  EXPERIMENTAL_VALUE: "95.29%"
- COMPOUND: "Cc1c(-c2nc3ccc(-c4c[nH]nn4)cn3n2)[nH]c2ccccc2c1=O"
  EXPERIMENTAL_VALUE: "155.065%"
- COMPOUND: "Cc1c(-c2nc3ccc(-c4cccc(F)c4)cn3n2)[nH]c2ccccc2c1=O"
  EXPERIMENTAL_VALUE: "79.37%"
- COMPOUND: "Cc1ccc(-c2ccc3nc(-c4[nH]c5ccccc5c(=O)c4C)nn3c2)cc1F"
  EXPERIMENTAL_VALUE: "37,02%"
- COMPOUND: "CNC(=O)c1c(-c2nc3ccc(-c4ccc(OC(F)(F)F)cc4)cn3n2)[nH]c2ccccc2c1=O"
  EXPERIMENTAL_VALUE: "144.07%"
- COMPOUND: "Cc1c(Cc2nc3ccc(-c4ccc(OC(F)(F)F)cc4)cn3n2)[nH]c2ccccc2c1=O"
  EXPERIMENTAL_VALUE: "161.97%"
- COMPOUND: "Cc1c(-c2cc3ccc(-c4ccc(OC(F)(F)F)cc4)cn3n2)[nH]c2ccccc2c1=O"
  EXPERIMENTAL_VALUE: "49.26%"
- COMPOUND: "Cc1c(-c2nc3ccc(-c4cccc(CC(F)F)c4)cn3n2)[nH]c2ccccc2c1=O"
  EXPERIMENTAL_VALUE: "38,59%"
